System: MCF7 (breast)
Protocol: Inhibition of the proliferation/vitality of tumour cells (Alamar Blue), MCF7
Assay type: cell-based
Setup conditions: Homo sapiens, 96 h, 4 days cultivation
Readout label: IC50

Look up IC50 with MCF7 (breast) for this molecule: c1ccc(Nc2nccc(-c3c[nH]c4ccncc34)n2)cc1 [Compound A1] 10 to 1000 nM

----------
Consider the following compounds and their measured IC50 readings.
Test system: A2780 (ovary)
Protocol: Inhibition of the proliferation/vitality of tumour cells (Alamar Blue), A2780
Assay type: cell-based
Setup conditions: Homo sapiens, 96 h, 4 days cultivation

These recorded examples may help you get a feel for the data.
Compound smiles: c1ccc(Nc2nccc(-c3c[nH]c4ccncc34)n2)cc1
Assay system: A2780 (ovary)
IC50: 10 to 1000 nM

Compound smiles: Cc1ccccc1Nc1nccc(-c2c[nH]c3ccncc23)n1
Assay system: A2780 (ovary)
IC50: 1000 to 10000 nM

Compound smiles: COc1ccc(Nc2nccc(-c3c[nH]c4ccncc34)n2)cc1
Assay system: A2780 (ovary)
IC50: 1000 to 10000 nM

Switching to the query record.
Given Fc1cccc(Nc2nccc(-c3c[nH]c4ccncc34)n2)c1 , state its recorded IC50. 10 to 1000 nM
